- Test system: Escherichia coli
- Protocol Details: Selectivity index, ratio of MIC for against extended-spectrum beta-lactamase producing Escherichia coli isolate 208687 to MIC for extended-spectrum beta-lactamase producing Escherichia coli isolate 208687 in presence of BPL
- Type: functional
Metric: Selectivity Index
# print the numeric value only

Recorded Selectivity Index, per entry:
Molecule: COC[C@@H]1[C@H](NC(=O)/C(=N\OC(c2cc(=O)c(O)cn2O)C(C)C)c2csc(N)n2)C(=O)N1S(=O)(=O)O (some centres not stated)
Selectivity Index: 2

Molecule: CC(=O)OC[C@@H]1[C@H](NC(=O)/C(=N\OC(c2cc(=O)c(O)cn2O)C(C)C)c2csc(N)n2)C(=O)N1S(=O)(=O)O (some centres not stated)
Selectivity Index: 4

Molecule: Cc1csc(SC[C@@H]2[C@H](NC(=O)/C(=N\OC(c3cc(=O)c(O)cn3O)C(C)C)c3csc(N)n3)C(=O)N2S(=O)(=O)O)n1 (some centres not stated)
Selectivity Index: 8

Molecule: CC(C)C(O/N=C(\C(=O)N[C@@H]1C(=O)N(S(=O)(=O)O)[C@@H]1CN1CCNCC1)c1csc(N)n1)c1cc(=O)c(O)cn1O (some centres not stated)
Selectivity Index: 2

Molecule: CC(C)C(O/N=C(\C(=O)NC1C(=O)N(S(=O)(=O)O)C12CCOCC2)c1csc(N)n1)c1cc(=O)c(O)cn1O (configuration not stated)
Selectivity Index: 4

Molecule: CC(C)C(O/N=C(\C(=O)N[C@@H]1C(=O)N(S(=O)(=O)O)[C@@H]1CSc1nc(=O)c(O)nn1C)c1csc(N)n1)c1cc(=O)c(O)cn1O (some centres not stated)
Selectivity Index: 4

Switching to the query record.
Asked: Which Selectivity Index value is on record for CC(C)C(O/N=C(\C(=O)NC1C(=O)N(S(=O)(=O)O)C12CCCCC2)c1csc(N)n1)c1cc(=O)c(O)cn1O (configuration not stated) ?
Given back: 8

====

The following compounds are listed with their measured half-life at 0.1 µM values.
- Protocol Details: Elimination half life in human liver microsomes at 0.1 uM pre-incubated with compound followed by NADPH addition and measured after 60 mins by LC-MS/MS analysis
- Format: ADME, microsome
- Conditions: read-out: beta t1/2
Provide the reading as a plain figure in min.

Recorded half-life at 0.1 µM, per entry:
Compound: CC(C)C(O/N=C(\C(=O)N[C@@H]1C(=O)N(S(=O)(=O)O)[C@@H]1CCl)c1csc(N)n1)c1cc(=O)c(O)cn1O (some centres undefined)
Unit Info: min
half-life at 0.1 µM: 189
//
Compound: CC(C)C(O/N=C(\C(=O)N[C@@H]1C(=O)N(S(=O)(=O)O)[C@@H]1COC(N)=O)c1csc(N)n1)c1cc(=O)c(O)cn1O (some centres undefined)
Unit Info: min
half-life at 0.1 µM: 176
//
Compound: CC(C)C(O/N=C(\C(=O)N[C@@H]1C(=O)N(S(=O)(=O)O)[C@@H]1Cn1cc(COCc2cc(=O)c(O)cn2O)nn1)c1csc(N)n1)c1cc(=O)c(O)cn1O (some centres undefined)
Unit Info: min
half-life at 0.1 µM: 80.1

Asked: // half-life at 0.1 µM lookup, key: CC(C)C(O/N=C(\C(=O)N[C@@H]1C(=O)N(S(=O)(=O)O)C12CCCC2)c1csc(N)n1)c1cc(=O)c(O)cn1O (some centres undefined)
Given back: 271

====

log10(MIC) reference
- Test system: Escherichia coli
- Protocol Details: Antibacterial activity against extended-spectrum beta-lactamase producing Escherichia coli isolate 106342 after 18 hrs by CLSI broth microdilution method
- Assay type: functional
- Conditions: isolate 106342, 18 h
Would you kindly interpret these values as log10 of MIC expressed in µg/mL?

Compound: CC(C)C(O/N=C(\C(=O)N[C@@H]1C(=O)N(S(=O)(=O)O)[C@@H]1CSc1nc2ccccc2o1)c1csc(N)n1)c1cc(=O)c(O)cn1O (some centres not stated)
System Name: Escherichia coli
log10(MIC): 0.30
--
Compound: C[C@@H](O)[C@H]1C(=O)N2C(C(=O)O)=C(S[C@@H]3CN[C@H](C(=O)N(C)C)C3)[C@H](C)[C@H]12 [MEROPENEM]
System Name: Escherichia coli
log10(MIC): 0.90
--
Compound: CC(C)C(O/N=C(\C(=O)NC1C(=O)N(S(=O)(=O)O)C12CCCC2)c1csc(N)n1)c1cc(=O)c(O)cn1O (configuration not stated)
System Name: Escherichia coli
log10(MIC): 0.30
--
Compound: CC(C)C(O/N=C(\C(=O)NC1C(=O)N(S(=O)(=O)O)C12CCC2)c1csc(N)n1)c1cc(=O)c(O)cn1O (configuration not stated)
System Name: Escherichia coli
log10(MIC): 0.30
--
Compound: C=CC1[C@H](NC(=O)/C(=N\OC(c2cc(=O)c(O)cn2O)C(C)C)c2csc(N)n2)C(=O)N1S(=O)(=O)O (some centres not stated)
System Name: Escherichia coli
log10(MIC): 1.81

Asked: Query (compound): CC(C)C(O/N=C(\C(=O)N[C@@H]1C(=O)N(S(=O)(=O)O)C12CCCC2)c1csc(N)n1)c1cc(=O)c(O)cn1O (some centres not stated) ; field requested: log10(MIC)
Given back: -0.30

Asked: Queued: CC(C)C(O/N=C(\C(=O)N[C@@H]1C(=O)N(S(=O)(=O)O)[C@@H]1CCl)c1csc(N)n1)c1cc(=O)c(O)cn1O (some centres not stated)
Given back: 0.00

====

- System: Klebsiella pneumoniae
- Protocol Details: Antibacterial activity against KPC-2 producing Klebsiella pneumoniae isolate 209632 after 18 hrs in presence of BPL by CLSI broth microdilution method
- Assay type: functional
- Conditions: isolate 209632, 18 h
Each record is given Fulfilled if its reported MIC is strictly below 1 mg/L. Records at or above 1 mg/L are given Not fulfilled.

Worked set:
Compound: CC(C)C(O/N=C(\C(=O)N[C@@H]1C(=O)N(S(=O)(=O)O)[C@@H]1CCl)c1csc(N)n1)c1cc(=O)c(O)cn1O (some centres not stated)
Class Assignment: Not fulfilled

Compound: CC(C)C(O/N=C(\C(=O)N[C@@H]1C(=O)N(S(=O)(=O)O)[C@@H]1CN1CCNC1=O)c1csc(N)n1)c1cc(=O)c(O)cn1O (some centres not stated)
Class Assignment: Not fulfilled

Asked: Is it true that MIC reported for CC(C)C(O/N=C(\C(=O)NC1C(=O)N(S(=O)(=O)O)C12CCC2)c1csc(N)n1)c1cc(=O)c(O)cn1O (configuration not stated) is less than 1 mg/L?
Given back: Not fulfilled

Asked: Do the same for CC(C)C(O/N=C(\C(=O)N[C@@H]1C(=O)N(S(=O)(=O)O)C12CCCC2)c1csc(N)n1)c1cc(=O)c(O)cn1O (some centres not stated) please
Given back: Fulfilled

Asked: Could you do the same for Cc1csc(SC[C@@H]2[C@H](NC(=O)/C(=N\OC(c3cc(=O)c(O)cn3O)C(C)C)c3csc(N)n3)C(=O)N2S(=O)(=O)O)n1 (some centres not stated) , please?
Given back: Fulfilled

Asked: // next record CC(C)C(O/N=C(\C(=O)NC1C(=O)N(S(=O)(=O)O)C1(CF)CF)c1csc(N)n1)c1cc(=O)c(O)cn1O (configuration not stated)
Given back: Not fulfilled

Asked: Lookup CC(C)C(O/N=C(\C(=O)NC1C(=O)N(S(=O)(=O)O)C12CCCCC2)c1csc(N)n1)c1cc(=O)c(O)cn1O (configuration not stated)
Given back: Not fulfilled

Asked: Param item: CC(C)C(O/N=C(\C(=O)N[C@@H]1C(=O)N(S(=O)(=O)O)[C@@H]1CN1CCNCC1)c1csc(N)n1)c1cc(=O)c(O)cn1O (some centres not stated)
Given back: Not fulfilled

====

Quick reference: half-life at 0.1 µM of the listed items.
- Protocol Details: Elimination half life in mouse liver microsomes at 0.1 uM pre-incubated with compound followed by NADPH addition and measured after 60 mins by LC-MS/MS analysis
- Type: ADME, microsome
- Conditions: read-out: beta t1/2
# output: bare number, implied unit h

Here is how some compounds turned out for half-life at 0.1 µM.
Compound: CC(C)C(O/N=C(\C(=O)N[C@@H]1C(=O)N(S(=O)(=O)O)[C@@H]1Cn1cc(COCc2cc(=O)c(O)cn2O)nn1)c1csc(N)n1)c1cc(=O)c(O)cn1O (some centres undefined)
half-life at 0.1 µM (h): 1.29
--
Compound: CC(C)C(O/N=C(\C(=O)N[C@@H]1C(=O)N(S(=O)(=O)O)[C@@H]1CCl)c1csc(N)n1)c1cc(=O)c(O)cn1O (some centres undefined)
half-life at 0.1 µM (h): 1.2
--
Compound: CC(C)C(O/N=C(\C(=O)N[C@@H]1C(=O)N(S(=O)(=O)O)[C@@H]1COC(N)=O)c1csc(N)n1)c1cc(=O)c(O)cn1O (some centres undefined)
half-life at 0.1 µM (h): 10.3

Please find the next compound below.
Asked: # lookup: half-life at 0.1 µM of CC(C)C(O/N=C(\C(=O)N[C@@H]1C(=O)N(S(=O)(=O)O)C12CCCC2)c1csc(N)n1)c1cc(=O)c(O)cn1O (some centres undefined)
Given back: 6.25
